# system: Thymidylate synthase (Lactobacillus casei, UniProt P00469)
# procedure details: Inhibition of amethopterin-resistant Lactobacillus casei thymidylate synthetase-catalyzed 5-BrdUMP dehalogenation by absorbance analysis in absence of CH2-H4-folate
# Parameters: species or system Lacticaseibacillus casei
# test parameters: read-out: Ki(app)
pKi: −log10 of the molar value.
reported metric: pKi

                                   molecule  reported_metric  result
0  Cc1cn([C@H]2C[C@H](O)[C@@H](COP(=O)(O)O)O2)c(=O)[nH]c1=O [THYMIDINE MONOPHOSPHATE]              pKi    5.06

[a] O=c1ccn([C@H]2C[C@H](O)[C@@H](COP(=O)(O)O)O2)c(=O)[nH]1 [DEOXYURIDINE MONOPHOSPHATE]
[b] O=c1[nH]c(=O)n([C@H]2C[C@H](O)[C@@H](COP(=O)(O)O)O2)cc1Cl
Hi, I'm comparing a with b and wondering which one has the bigger number for pKi. Any idea? Write the label of whichever entry you select.
a
(a: 5.65, b: 5.03)

###

# system: Thymidylate synthase (Lactobacillus casei, UniProt P00469)
# Sequence (P00469 whole entry): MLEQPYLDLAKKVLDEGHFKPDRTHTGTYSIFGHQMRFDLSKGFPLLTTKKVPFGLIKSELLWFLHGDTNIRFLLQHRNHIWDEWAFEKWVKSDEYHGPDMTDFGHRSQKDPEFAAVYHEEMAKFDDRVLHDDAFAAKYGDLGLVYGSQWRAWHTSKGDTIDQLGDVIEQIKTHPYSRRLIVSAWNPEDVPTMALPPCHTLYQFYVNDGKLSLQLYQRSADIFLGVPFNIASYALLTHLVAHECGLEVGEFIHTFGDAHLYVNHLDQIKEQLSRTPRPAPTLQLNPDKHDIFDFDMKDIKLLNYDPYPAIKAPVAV
# procedure details: Inhibition of amethopterin-resistant Lactobacillus casei thymidylate synthetase-catalyzed dTMP formation using dUMP as substrate by spectrophotometric analysis in presence of CH2-H4-folate
# Set-up: species or system Lacticaseibacillus casei
# test parameters: read-out: Ki(app)
reported metric: Ki (nM)

The examples below pair each entry with its known result.
>>> print(df.to_string())
                                   molecule  result
0  O=Cc1cn([C@H]2C[C@H](O)[C@@H](COP(=O)(O)O)O2)c(=O)[nH]c1=O      17
1  Cc1cn([C@H]2C[C@H](O)[C@@H](COP(=O)(O)O)O2)c(=O)[nH]c1=O [THYMIDINE MONOPHOSPHATE]   15500
2  O=c1[nH]c(=O)n([C@H]2C[C@H](O)[C@@H](COP(=O)(O)O)O2)cc1C(F)(F)F      39

[I] O=c1[nH]c(=O)n([C@H]2C[C@H](O)[C@@H](COP(=O)(O)O)O2)cc1Cl
[II] O=c1[nH]c(=O)n([C@H]2C[C@H](O)[C@@H](COP(=O)(O)O)O2)cc1I
Min Ki? I | II Lab log: write the label of the selected item as the result.
I
